tested on: KM12 colon; test: NCI-60 one-dose screen, 48 h (100 = growth as untreated, 0 = no growth, -100 = all killed); settings: 10 µM
The panel holds about 83,000 compounds, 20% with a hit somewhere; the sample as a whole holds those more often. Active and inactive are the calls of the source. How the source made its calls: active means growth percent below 10; inactive means the rest.
recorded.metric: growth

Query string: Param item = `CN(C)CCCN1c2ccccc2CCc2ccc(Cl)cc21` ; retrieve measured growth.
Result string: 79.3% (inactive)

Query string: Param item = `COc1ccc(N=Nc2cc(OC)c(OC)c(OC)c2)cc1` ; retrieve measured growth.
Result string: 81.7% (inactive)

Query string: Param item = `COc1ccc(/C(C#N)=C/c2cccc(OC)c2OC)cc1` ; retrieve measured growth.
Result string: 56.7% (inactive)

Query string: Param item = OC[C@H]1OC([S-])[C@H](O)[C@@H](O)[C@@H]1O.[Au+] (stereo not given in full) ; retrieve measured growth.
Result string: 114% (inactive)

Query string: Param item = CCCCN(CCCC)C(=O)[C@H](CC)[C@@H]1CC[C@@H](C)[C@@H]([C@H](C)[C@@H](O)[C@@H](C)C(=O)[C@H](CC)C2O[C@]3(C=CC(=O)[C@]4(CC[C@@](C)([C@H]5CC[C@](O)(CC)[C@H](C)O5)O4)O3)[C@H](C)C[C@@H]2C)O1 (stereo not given in full) ; retrieve measured growth.
Result string: 55.6% (inactive)

Query string: Param item = `COc1ccc(Nc2cnc3cc(NS(=O)(=O)c4ccc(C)cc4)ccc3n2)cc1` ; retrieve measured growth.
Result string: 71.3% (inactive)

Query string: Param item = `CC(=O)N[C@H](C(=O)N[C@@H](CCCNC(=N)N)C(=O)N[C@@H](CCCCN)C(=O)N[C@@H](CCCNC(=N)N)C(=O)N[C@]1(C)CCC/C=C\CCC[C@@](C)(C(=O)N[C@@H](CC(C)C)C(=O)N[C@@H](CC(C)C)C(=O)N[C@@H](CCC(N)=O)C(=O)N[C@@H](CCC(=O)O)C(=O)N[C@@H](CCCNC(=N)N)C(=O)N[C@@H](CCC(=O)O)C(=O)N[C@@H](CC(C)C)C(=O)N[C@H](C(=O)N[C@@H](CCC(=O)O)C(N)=O)C(C)C)NC(=O)[C@H](CCCNC(=N)N)NC(=O)[C@H](CC(C)C)NC1=O)C(C)C` ; retrieve measured growth.
Result string: 105% (inactive)

Query string: Param item = `C=CCn1c(SCC(=O)Nc2ccc(C(=O)/C=C/c3cc(OC)c(OC)c(OC)c3)cc2)nnc1-c1cc(-c2ccc(Cl)cc2)nc2ccccc12` ; retrieve measured growth.
Result string: 85.8% (inactive)

Query string: Param item = `CCOC(=O)c1cc(C(=O)c2cc(OC)cc(OC)c2)n2nc(C)ccc12` ; retrieve measured growth.
Result string: 29.4% (inactive)

Query string: Param item = CC1CCCC(C(=O)O)C1C(=O)O (stereo not given) ; retrieve measured growth.
Result string: 106% (inactive)

Query string: Param item = `CCCCCCCCCCOC(c1ccccc1)c1ccccc1` ; retrieve measured growth.
Result string: 89.1% (inactive)

Query string: Param item = CC(CN(C)C)Oc1ccc(OC(C)CN(C)C)c2c1C(=O)c1ccccc1C2=O (stereo not given) ; retrieve measured growth.
Result string: 51.1% (inactive)

Query string: Param item = `O=C(Nc1cc([N+](=O)[O-])c2[nH]c(=O)c3ccccc3c2c1)C(F)(F)F` ; retrieve measured growth.
Result string: 87.2% (inactive)

Query string: Param item = `O=C(CCCSc1nc(-c2ccc(Cl)cc2)cc(-c2ccc(Cl)cc2)n1)NO` ; retrieve measured growth.
Result string: 26.3% (inactive)

Query string: Param item = `CS(=O)(=O)c1nccc(-c2c(-c3cccc(OCc4ccc(F)cc4)c3)nc3sccn23)n1` ; retrieve measured growth.
Result string: 38.9% (inactive)
